# Test system: Puccinia triticina
# Method: Wheat brown rust (PUCCRT) disease control on wheat seedlings
# Assay type: in vivo
# Set-up: key: A: > 80; B: ≤ 80; C: Not Tested; D: No Activity Observed in the Reported Assay
# Particulars: low volume application, 125.1 g/H, 3 Day Curative
Assay endpoint: PUCCRT 3DC, LV activity at 125.1 g/H (% Control rating)

Compound: COc1ccnc(C(=O)N[C@H](C)C(=O)O[C@H](C)[C@@H](Oc2ccccc2)C(C)C)c1OCOC(C)=O
Observed measurement: D
--
Compound: CCC(CC)[C@@H](Oc1cc(F)cc(Cl)c1)[C@H](C)OC(=O)[C@@H](NC(=O)c1nccc(OC)c1OCOC(C)=O)C(C)C
Observed measurement: B (≤ 80)
--
Compound: CCCO[C@@H]([C@H](C)OC(=O)[C@H](C)NC(=O)c1nccc(OC)c1OCOC(C)=O)[C@H](CC)Oc1ccccc1
Observed measurement: A (> 80)
--
Compound: CCC(CC)[C@@H](Oc1ccc(C(F)(F)F)cc1)[C@H](C)OC(=O)[C@H](C)NC(=O)c1nccc(OC)c1OCOC(C)=O
Observed measurement: A (> 80)

Memo: CCC(CC)[C@@H](OCC(C)C)[C@H](C)OC(=O)[C@H](C)NC(=O)c1nccc(OC)c1OCOC(C)=O , reported PUCCRT 3DC, LV activity at 125.1 g/H (% Control rating): A (> 80)

Per the records, this compound ( COc1ccnc(C(=O)N[C@@H](Cc2ccccc2)C(=O)O[C@@H](C)[C@H](Oc2cccc(F)c2)c2ccccc2)c1OCOC(C)=O ) has PUCCRT 3DC, LV activity at 125.1 g/H (% Control rating) equal to B (≤ 80)

Sample COc1ccnc(C(=O)N[C@@H](C)C(=O)O[C@@H](C)[C@H](Oc2cccc3ccccc23)C(C)C)c1OCOC(C)=O ; PUCCRT 3DC, LV activity at 125.1 g/H (% Control rating) observed: A (> 80)

The recorded PUCCRT 3DC, LV activity at 125.1 g/H (% Control rating) for CCC(CC)[C@@H](Oc1ccccc1Cl)[C@H](C)OC(=O)[C@@H](NC(=O)c1nccc(OC)c1OCOC(C)=O)C(C)C is B (≤ 80)

Summary for this compound, CC[C@H](CCC(C)C)[C@@H](OCC1CC1)[C@H](C)OC(=O)[C@H](C)NC(=O)c1nccc(OC)c1OC(C)=O : PUCCRT 3DC, LV activity at 125.1 g/H (% Control rating) is B (≤ 80)

----------
# Tested on: Zymoseptoria tritici
# Method: Leaf blotch of wheat (SEPTTR) disease control on wheat seedlings
# Format: in vivo
# Particulars: high volume application, 100 ppm, 1 day protectant
# Method: All fungicides were evaluated using the aforementioned method for their activity vs. all target diseases, unless stated otherwise. Wheat leaf blotch and brown rust activity were also evaluated using track spray applications, in which case the fungicides were formulated as EC formulations, containing 0.1% Trycol 5941 in the spray solutions. […] Percent disease control was calculated using the ratio of disease severity on treated plants relative to untreated plants.
Assay endpoint: SEPTTR 1DP disease control rating, HV activity at 100 ppm

As a guide, the following entries are already answered.
Molecule: COc1ccnc(C(=O)NC(C)C(=O)OC(C)C(OCC2CC2)c2ccccc2)c1O (stereo not shown)
Observed measurement: B (≤ 80)
//
Molecule: COc1ccnc(C(=O)NC(C)C(=O)OC(C)C(Oc2ccccc2)c2nccs2)c1O (mixture of isomers)
Observed measurement: B (≤ 80)
//
Molecule: C=CC[C@@H](Oc1ccc(F)cc1F)[C@H](C)OC(=O)[C@H](C)NC(=O)c1nccc(OC)c1O
Observed measurement: D
//
Molecule: COc1ccnc(C(=O)N[C@@H](C)C(=O)O[C@@H](C)[C@H](OCC2CC2)C(C)(C)C)c1O
Observed measurement: B (≤ 80)
//
Molecule: C=CC[C@@H](Oc1cc(F)cc(Cl)c1)[C@H](C)OC(=O)[C@H](C)NC(=O)c1nccc(OC)c1O
Observed measurement: D
//
Molecule: COc1ccnc(C(=O)N[C@@H](C)C(=O)O[C@@H](C)[C@H](OCC(C)C)C2CCCC2)c1O
Observed measurement: B (≤ 80)

Attention now turns to another entry.
Record C=CC[C@@H](Oc1ccc(C(F)(F)F)cc1)[C@H](C)OC(=O)[C@H](C)NC(=O)c1nccc(OC)c1O , field SEPTTR 1DP disease control rating, HV activity at 100 ppm: B (≤ 80)

----------
# System: Puccinia triticina
# Method: Wheat brown rust (PUCCRT) disease control on wheat seedlings
# Type: in vivo
# Particulars: HV application, 100 ppm, 3 Day Curative, wheat brown rust
Assay endpoint: HV activity at 100 ppm PUCCRT 3DC (disease control rating)

Worked examples, 4 compounds total:
Compound: CC(C)C[C@@H](Oc1cccc(Cl)c1)[C@H](C)OC(=O)[C@H](C)NC(=O)c1ncccc1O [Cmpd 1037]
Observed measurement: A (> 80)

Compound: COc1ccnc(C(=O)N[C@@H](C)C(=O)O[C@@H](C)[C@@H](CC(C)C)Oc2ccc3ccccc3c2)c1O [Cmpd 1046]
Observed measurement: A (> 80)

Compound: COc1ccnc(C(=O)N[C@@H](C)C(=O)O[C@@H](C)[C@@H](CC(C)C)Oc2cc(F)ccc2F)c1O [Cmpd 1049]
Observed measurement: A (> 80)

Compound: COc1cc(O[C@H](CC(C)C)[C@H](C)OC(=O)[C@H](C)NC(=O)c2nccc(OC)c2O)ccc1Cl [Cmpd 1052]
Observed measurement: A (> 80)

Item: CCOc1ccnc(C(=O)N[C@@H](C)C(=O)O[C@@H](C)[C@@H](CC(C)C)Oc2cc(F)ccc2F)c1O [Cmpd 1040] | System: Puccinia triticina | HV activity at 100 ppm PUCCRT 3DC (disease control rating): A (> 80)

Kindly note: Puccinia triticina, CC(C)C[C@@H](Oc1cccc(F)c1)[C@H](C)OC(=O)[C@H](C)NC(=O)c1ncccc1O [Cmpd 1035] , HV activity at 100 ppm PUCCRT 3DC (disease control rating) value reported: A (> 80)

----------
# System: Zymoseptoria tritici
# Method: Leaf blotch of wheat (SEPTTR) disease control on wheat seedlings
# Format: in vivo
# Particulars: HV application at 100 ppm; 3 Day Curative; wheat leaf blotch
# Protocol: All fungicides were evaluated using the aforementioned method for their activity vs. all target diseases, unless stated otherwise. Wheat leaf blotch and brown rust activity were also evaluated using track spray applications, in which case the fungicides were formulated as EC formulations, containing 0.1% Trycol 5941 in the spray solutions. […] Percent disease control was calculated using the ratio of disease severity on treated plants relative to untreated plants.
Assay endpoint: SEPTTR 3DC disease control rating, HV activity

Look over these answered cases.
Compound: COc1ccnc(C(=O)N[C@@H](C)C(=O)O[C@@H](C)[C@@H](Cc2ccccc2)OCC2CC2)c1O
Tested system: Zymoseptoria tritici
Observed measurement: B (≤ 80)
--
Compound: CCC(CC)C(Oc1cccc(-c2ccccc2)c1)C(C)OC(=O)C(C)NC(=O)c1nccc(OC)c1O (stereo not shown)
Tested system: Zymoseptoria tritici
Observed measurement: D
--
Compound: COc1ccnc(C(=O)NC(C(=O)OC(C)C(Oc2cccc3ccccc23)C(C)C)C(C)C)c1O (stereo not shown)
Tested system: Zymoseptoria tritici
Observed measurement: B (≤ 80)
--
Compound: CCCOC(CC)C(Oc1ccccc1)C(C)OC(=O)C(CC)NC(=O)c1nccc(OC)c1O (stereo not shown)
Tested system: Zymoseptoria tritici
Observed measurement: B (≤ 80)
--
Compound: COc1ccnc(C(=O)NC(C)C(=O)OC(C)C(OCC2CC2)c2cccc(-c3ccccc3)c2)c1O (stereo not shown)
Tested system: Zymoseptoria tritici
Observed measurement: B (≤ 80)
--
Compound: COc1ccnc(C(=O)NC(C)C(=O)OC(C)C(Oc2cccc(F)c2)C(C)C)c1O (stereo not shown)
Tested system: Zymoseptoria tritici
Observed measurement: A (> 80)

Measured SEPTTR 3DC disease control rating, HV activity, CCC(CC)C(Oc1ccc(C(F)(F)F)cc1)C(C)OC(=O)C(C)NC(=O)c1nccc(OC)c1O (stereo not shown) : D

Per the record, C=CCC(Oc1ccc(Cl)cc1Cl)C(C)OC(=O)C(C)NC(=O)c1nccc(OC)c1O (stereo not shown) has SEPTTR 3DC disease control rating, HV activity of D

Entry COc1ccnc(C(=O)NC(C)C(=O)OC(C)C(Oc2ccc(C(F)(F)F)cc2)C(C)C)c1O (stereo not shown) — recorded SEPTTR 3DC disease control rating, HV activity = B (≤ 80)

The recorded SEPTTR 3DC disease control rating, HV activity for COc1ccnc(C(=O)N[C@@H](C)C(=O)O[C@@H](C)COCC2CC2)c1O is D

The value of SEPTTR 3DC disease control rating, HV activity measured for the compound COc1ccnc(C(=O)N[C@@H](C)C(=O)O[C@H](C)[C@@H](Oc2ccccc2)c2ccccc2)c1O turned out to be B (≤ 80)

Memo: C=CC(OCCC)C(Oc1ccccc1)C(C)OC(=O)C(C)NC(=O)c1nccc(OC)c1OC(C)=O (stereo not shown) , reported SEPTTR 3DC disease control rating, HV activity: A (> 80)
